Let's look at some compounds and their measured growth.
Tested on: 786-0 renal
protocol_description: NCI-60 one-dose screen, 48 h (100 = growth as untreated, 0 = no growth, -100 = all killed)
condition_set: 10 µM unless noted
The panel holds about 83,000 compounds, 20% with a hit somewhere; the sample as a whole holds those more often. Activity calls are given as the source filed them. The calls were made as follows: active = growth percent below 10; inactive = the rest.

Look over these answered cases.
* CCN(CC)CCCC(C)Nc1c2ccc(Cl)cc2nc2cc(OC)c(OC)cc12 (stereo unspecified) | 38.6% (inactive)
* Cc1ccc(S(=O)(=O)NCCNc2nccc(-c3c(-c4ccc(O)cc4)nc4sccn34)n2)cc1 | 97.3% (inactive)
* S=C1CC(=S)NC(=S)N1 | 106% (inactive)
* O=[N+]([O-])c1cc(Cl)c2[nH]c3c(Cl)cc([N+](=O)[O-])cc3c2c1 | 8.87% (active)
* O=C(C1=Cc2cc3ccccc3n2Cc2cnnn21)c1ccccc1 | 69.1% (inactive)

Look up and state reported growth for CCCCN(CCCC)C(=O)CC
102% (inactive)

Look up and state reported growth for Cn1c2ccc(Br)cc2c2c3c(c4c5ccccc5[nH]c4c21)C(=O)N(O)C3=O
-93.8% (active)

Look up and state reported growth for COc1cc(NC(N)=NCCC(C)(C)Oc2ccc(C(F)(F)F)cc2)ncc1C#N
7.56% (active)

Look up and state reported growth for CC(C)NCCCNC1=C(Cl)C(=O)c2ccccc2C1=O
113% (inactive)

Look up and state reported growth for COC(=O)c1cc(=O)nc(N/N=C/c2ccco2)s1
114% (inactive)

Look up and state reported growth for CC(=O)Oc1cccc(S(=O)(=O)n2cc(C(=O)C(=O)Nc3ccncc3)c3ccccc32)c1
91.2% (inactive)

* * *

Let's look at some compounds and their measured growth.
Tested on: MDA-MB-231 breast
protocol_description: NCI-60 one-dose screen, 48 h (100 = growth as untreated, 0 = no growth, -100 = all killed)
condition_set: 10 µM unless noted
Compounds without any hit were thinned out: in the full panel of roughly 83,000, 20% have a hit.
Only the number, expressed in %, is required.

Look over these answered cases.
- COC(=O)[C@]12CC[C@@H](C)[C@H](C)[C@@H]1C1=CC[C@@H]3[C@@]4(C)C(C=O)=C[C@@](C)(COC(=O)c5ccco5)[C@@H]4[C@H](O)C[C@@]3(C)[C@]1(C)CC2: -47.4
- COc1cccc(CC(C)=C(c2ccc(OCCN(C)C)cc2)c2ccc(OCCN(C)C)cc2)c1: -75.4
- CCOC(=O)c1ccc2c(c1)nc(-c1ccc(OCc3ccccc3)c(OC)c1)n2-c1cc(C(C)(C)C)[nH]n1: 109
- CCCCCCCCCCCCCCCCCCNC(=O)[C@H]1CSC(c2cccs2)N1 (some centres undefined): -93.5
- O=[N+]([O-])c1ccc(OCCCOc2ccccc2)cc1: 104

Please report the measured growth for C=C(C)[C@@H]1C[C@@H]2Cc3cc(Cl)ccc3N1O2 tested on MDA-MB-231 breast.
99.2

Please report the measured growth for C=C1CCC2C3(C)COC(C)(C)OC3CCC2(C)C1C/C=C1/C(=O)OCC1Oc1ccccc1OC (centres undefined) tested on MDA-MB-231 breast.
103

Please report the measured growth for CC(=O)Oc1cccc(S(=O)(=O)n2cc(C(=O)C(=O)Nc3ccncc3)c3ccccc32)c1 tested on MDA-MB-231 breast.
66.1

Please report the measured growth for FC(F)(F)c1cccc(-c2cn3c(ccc4ccccc43)n2)c1 tested on MDA-MB-231 breast.
79.2

Reference source: PubChem BioAssay (NCI)
